# test: PBMC viability / cytotoxicity (MTS dye)
# measurement conditions: human
reported metric: CC50

>  <compound>
C=C(C)C12OC3(/C=C/C=C/CCC)OC1C1C4OC4(CO)C(O)C4(O)C(=O)C(C)=CC4C1(O3)C(C)C2OC(=O)c1ccccc1 (stereo not shown)

>  <reported metric>
CC50

>  <value>
> 15 µM

$$$$

* * *

# test: Cell viability by resazurin dye
# Format: cell-based
# measurement conditions: human, Jurkat T cells (Clone E6-1), parental, lacking HIV provirus, 1.5 μM, read-out: viability relative to 0.1% DMSO
reported metric: viability at 24 h, 1.5 µM (%)

>  <compound>
C=C(C)C12OC3(/C=C/C=C/CCC)OC1C1C4OC4(CO)C(O)C4(O)C(=O)C(C)=CC4C1(O3)C(C)C2OC(=O)c1ccccc1 (centres unmarked) [Compound 1, yuanhuacine A]

>  <value>
51.2

$$$$
>  <compound>
C=C(C)C12OC3(/C=C/C=C/CCCCC)OC1C1C4OC4(CO)C(O)C4(O)C(=O)C(C)=CC4C1(O3)C(C)C2OC(=O)c1ccccc1 (centres unmarked) [Compound 2, yuanhuacine]

>  <value>
58.5

$$$$

* * *

# test: Primary cell viability by trypan blue counting
# Format: cell-based
# measurement conditions: human, 10 μM, 3 donors, read-out: viability of primary CD4+ T cells

>  <molecule>
CC(=O)O[C@@]12C[C@@H](C)[C@@]3(O)[C@@H](C=C(CO)C[C@]4(O)C(=O)C(C)=C[C@@H]34)[C@@H]1C2(C)C [prostratin, reference compound]

>  <viability at 24 h, 10 µM / %>
65.9

$$$$

* * *

# test: Primary cell viability by trypan blue counting
# Assay type: cell-based
# measurement conditions: human, 1.5 μM, 3 donors, read-out: viability of primary CD4+ T cells

>  <compound>
C=C(C)C12OC3(/C=C/C=C/CCC)OC1C1C4OC4(CO)C(O)C4(O)C(=O)C(C)=CC4C1(O3)C(C)C2OC(=O)c1ccccc1 (centres unmarked) [Compound 1, yuanhuacine A]

>  <viability at 24 h, 1.5 µM, %>
96.4

$$$$
>  <compound>
C=C(C)C12OC3(/C=C/C=C/CCCCC)OC1C1C4OC4(CO)C(O)C4(O)C(=O)C(C)=CC4C1(O3)C(C)C2OC(=O)c1ccccc1 (centres unmarked) [Compound 2, yuanhuacine]

>  <viability at 24 h, 1.5 µM, %>
79.6

$$$$

* * *

# test: Cell viability by resazurin dye
# Format: cell-based
# measurement conditions: human, Jurkat T cells (Clone E6-1), parental, lacking HIV provirus, 0.5 μM, read-out: viability relative to 0.1% DMSO
reported metric: viability at 24 h, 0.5 µM (%)

>  <compound>
CC(=O)O[C@@]12C[C@@H](C)[C@@]3(O)[C@@H](C=C(CO)C[C@]4(O)C(=O)C(C)=C[C@@H]34)[C@@H]1C2(C)C [prostratin, reference compound]

>  <result unit>
%

>  <value>
56

$$$$

* * *

# test: in vitro
# measurement conditions: human

>  <molecule>
Cc1cn([C@H]2C[C@H](N=[N+]=[N-])[C@@H](CO)O2)c(=O)[nH]c1=O [AZT, azidothymidine, reference compound]

>  <CC50>
> 1000 nM

$$$$

These measurements were taken from paper PMC9318819.
